- MEASUREMENT_NOTES: qHTS for Inhibitors of the Functional Ribonucleoprotein Complex (vRNP) of Lymphocytic Choriomeningitis Arenaviruses (LCMV): LCMV Confirmatory Screen - GLuc reporter signal
- MEASUREMENT_CONDITIONS: LCMV minigenome vRNP, Gaussia luciferase reporter; series mostly up to 53.9 µM
Records with an inconclusive call do not appear. Activity calls are given as the source filed them. Calls follow the shape of the full dose curve.
ENDPOINT_LABEL: Potency

>>> observed_result("CCC[C@H](N[C@@H](C)C(=O)N1[C@@H]2CCCC[C@H]2C[C@H]1C(=O)O)C(=O)OCC")
"inactive"
>>> observed_result("C=C(C)[C@H]1Cc2c(ccc3c2O[C@@H]2COc4cc(OC)c(OC)cc4[C@@H]2C3=O)O1")
"0.0544 µM (active)"
>>> observed_result("Cc1cccc(-c2[nH]c(C(C)(C)C)nc2-c2ccc3c(c2)OCO3)n1")
"3.43 µM (active)"
>>> observed_result("CC(C)(C)C1CCC(CC2=C(O)c3ccccc3C(=O)C2=O)CC1 (stereo not given)")
"6.11 µM (active)"
>>> observed_result("O=C(Nc1ccccc1)c1cc([N+](=O)[O-])ccc1Cl")
"24.3 µM (active)"

The molecule CCOC(=O)OCC/C(SC(=O)OCC)=C(\C)N(C=O)Cc1cnc(C)nc1N showed Potency equal to inactive

Measured Potency, FC(F)(F)c1ccc(C=Cc2nc(COc3ccc(CCCCn4ccnn4)cc3)co2)cc1 : 0.0153 µM (active)

Recorded result, COc1cccc(-c2ccc(NC(=O)C3=C(C(=O)O)CCC3)c(F)c2)c1 , Potency: 3.85 µM (active)

// Potency value for CCn1c(-c2nonc2N)nc2cnc(Oc3cccc(NC(=O)c4ccc(OCCN5CCOCC5)cc4)c3)cc21 : 4.32 µM (active)

Record summary for O=C1c2ccccc2-n2c1nc1ccccc1c2=O : reported Potency = 1.22 µM (active)
